Target: T1, human iRhom2, endogenously expressed (human, UniProt Q6PJF5 1-856); further: test concentration or dose not given here
T1 sequence: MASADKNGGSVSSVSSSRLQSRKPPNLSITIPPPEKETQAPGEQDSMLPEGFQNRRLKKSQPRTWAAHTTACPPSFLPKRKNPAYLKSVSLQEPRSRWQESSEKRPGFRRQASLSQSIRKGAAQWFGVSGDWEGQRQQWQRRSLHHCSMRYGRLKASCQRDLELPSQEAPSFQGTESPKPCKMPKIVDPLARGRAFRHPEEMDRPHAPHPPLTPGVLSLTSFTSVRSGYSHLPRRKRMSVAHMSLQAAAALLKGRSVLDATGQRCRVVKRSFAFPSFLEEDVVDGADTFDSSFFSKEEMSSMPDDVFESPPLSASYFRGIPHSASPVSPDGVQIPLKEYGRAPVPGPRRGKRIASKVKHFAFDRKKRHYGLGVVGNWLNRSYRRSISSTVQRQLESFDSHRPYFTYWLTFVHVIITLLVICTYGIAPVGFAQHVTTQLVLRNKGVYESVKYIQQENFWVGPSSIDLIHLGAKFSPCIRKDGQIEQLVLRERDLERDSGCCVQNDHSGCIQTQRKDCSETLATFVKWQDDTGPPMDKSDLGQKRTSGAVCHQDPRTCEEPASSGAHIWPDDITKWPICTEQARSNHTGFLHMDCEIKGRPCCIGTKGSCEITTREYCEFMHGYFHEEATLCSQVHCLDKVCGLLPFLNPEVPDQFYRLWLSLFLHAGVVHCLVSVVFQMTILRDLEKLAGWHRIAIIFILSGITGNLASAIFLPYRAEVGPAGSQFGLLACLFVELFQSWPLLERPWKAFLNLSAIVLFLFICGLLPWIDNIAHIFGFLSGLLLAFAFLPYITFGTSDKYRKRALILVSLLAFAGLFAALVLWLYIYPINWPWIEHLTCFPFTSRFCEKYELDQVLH
Assay: cell-based or functional assay
# LPS-induced TNFα release from THP-1 cells, percent inhibition, recombinant antibody per entry
Just the number please, in %, no unit attached.

Worked set:
antibody 54 (antibody, V domains shown, mouse IgG, kappa light chain; also called clone #54) VH: QVTLKESGPGILQPSQTLSLTCSFSGFSLSTFGLGVGWIRQPSGKGLECLAHIWWDDDKYSNPALKSRLTISKDTSKNQVFLKIANVDSADTATYFCARILNYGSNYWYFDVWGTGTTVTVSS VL: QIVLTQSPALMSASPGEKVTMTCSASSSISYMYWYQQKPGSSPRLLIYDTSNLASGVPVRFSGSGSGTSFSLTVSRMEAEDAATYYCQQWNSYPLTFGAGTKLELK | 67.9
antibody 5 (antibody, V domains shown, mouse IgG, kappa light chain; also called clone #5; purified antibody 5) VH: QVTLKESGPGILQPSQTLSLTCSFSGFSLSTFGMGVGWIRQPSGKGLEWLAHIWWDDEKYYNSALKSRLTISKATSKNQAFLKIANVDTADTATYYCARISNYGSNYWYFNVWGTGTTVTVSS VL: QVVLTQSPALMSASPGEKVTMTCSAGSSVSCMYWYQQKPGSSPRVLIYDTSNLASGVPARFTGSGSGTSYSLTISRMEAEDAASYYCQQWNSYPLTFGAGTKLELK | 70.5
antibody 49 (antibody, V domains shown, mouse IgG, kappa light chain; also called clone #49) VH: QVTLKESGPGILQPSQTLSLTCSFSGFSLSTFGMGVGWIRQPSGKGLEWLAHIWWDDDKYYNPALQSRLTVSKDTAKNQVFLKIANVDTADTAIYYCARVGNYGSNYWYFAVWGTGTTVTVSS VL: QIVLTQSPAIMSASPGEKVTMTCSASSSVSYMYWYQQKPGSSPRLLIYDTSNLASGVPVRFSGSGSGTSYSLTISRMEAEDAATYYCQQWNSYPLTFGAGTKLELK | 59.9
antibody 56 (antibody, V domains shown, mouse IgG, kappa light chain; also called clone #56) VH: QVTLKESGPGILQPSQTLSLTCSFSGFSLSTFGMGVGWIRQPSGKGLEWLTNIWWDDDKYYNSVLKSRLTISKDTSKNQVFLKIANVDTADTATYYCARIAAYGSNYWYFDVWGTGTTVTVSS VL: QIVLTQSPAIMSASPGEKVTMTCSASSSVSYMYWYQQKPGSSPRVLIYDTSNLSSGVPVRFSGSGSGTSYSLTISRMEAEDAATYYCQQWSSYPLTFGAGTKLELK | 65.8

Would you kindly share the measured LPS-induced TNFα release from THP-1 cells, percent inhibition, recombinant antibody for antibody 57 (antibody, V domains shown, mouse IgG, kappa light chain; also called clone #57) VH: QVTLKESGPGILQPSQTLSLTCSFSGFSLSTFGMGVGWIRQPSGKGLEWLAHIWWDDDKYYNPALKSRLTISKDTSKNQIFLKIANVDTADSATFYCARIENYGSNYWYFDVWGTGTTVTVSS VL: QIVLTQSPAIMSASPGEKVTMTCSASSSVSYMYWYQQKPGSSPRVLIYDTSNLASGVPVRFSGSGSGTSYSLTVSRMEAEDAATYYCQQWNSYPLTFGAGTKLELK ? 59.7

Measured values drawn from patent US20240287172A1 for this set.
